# systemUnderTest: CYP3A4 (Homo sapiens)
# Sequence (P08684 whole entry): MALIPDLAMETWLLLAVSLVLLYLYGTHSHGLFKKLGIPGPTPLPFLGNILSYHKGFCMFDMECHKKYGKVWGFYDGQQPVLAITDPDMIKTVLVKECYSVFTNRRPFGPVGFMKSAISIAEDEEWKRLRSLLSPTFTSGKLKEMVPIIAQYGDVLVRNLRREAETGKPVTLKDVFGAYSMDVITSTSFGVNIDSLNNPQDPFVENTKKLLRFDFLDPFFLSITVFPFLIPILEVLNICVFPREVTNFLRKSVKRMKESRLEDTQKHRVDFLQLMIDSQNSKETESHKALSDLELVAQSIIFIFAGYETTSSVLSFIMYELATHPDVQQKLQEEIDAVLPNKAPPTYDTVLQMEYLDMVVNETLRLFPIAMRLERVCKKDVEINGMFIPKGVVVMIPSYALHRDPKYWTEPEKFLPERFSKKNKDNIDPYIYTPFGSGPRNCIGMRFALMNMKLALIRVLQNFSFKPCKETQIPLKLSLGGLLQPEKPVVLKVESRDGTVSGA
# methodNotes: CYP inhibition cocktail assay in pHLM, CYP3A4 (testosterone)
# conditions: human, pH 7.4
# Experimental: A modified dual-cocktail based method (Dinger et al. [2014b]) was used. Substrate cocktail A consisted of 8.9 µM dextromethorphan (CYP2D6), 86 µM testosterone (CYP3A4), 3.5 µM diclofenac (CYP2C9), and 12 µM phenacetin (CYP1A2). Substrate cocktail B included 30 µM bupropion (CYP2B6), 2 µM amodiaquine (CYP2C8) and 21 µM omeprazole (CYP2C19). […] Enzyme inhibition was evaluated by metabolite formation. […]
readoutLabel: inhibition at 15 min, 20 µM (%)

>>> result("CC1NCCOC1c1ccc2c(c1)OCO2 (stereo not shown) [MDPM]")
28
